Source listed as paper PMC3958853.

Target: recombinant MPO (Homo sapiens, UniProt P05164)
Construct: made in house
Sequence (P05164 49-745): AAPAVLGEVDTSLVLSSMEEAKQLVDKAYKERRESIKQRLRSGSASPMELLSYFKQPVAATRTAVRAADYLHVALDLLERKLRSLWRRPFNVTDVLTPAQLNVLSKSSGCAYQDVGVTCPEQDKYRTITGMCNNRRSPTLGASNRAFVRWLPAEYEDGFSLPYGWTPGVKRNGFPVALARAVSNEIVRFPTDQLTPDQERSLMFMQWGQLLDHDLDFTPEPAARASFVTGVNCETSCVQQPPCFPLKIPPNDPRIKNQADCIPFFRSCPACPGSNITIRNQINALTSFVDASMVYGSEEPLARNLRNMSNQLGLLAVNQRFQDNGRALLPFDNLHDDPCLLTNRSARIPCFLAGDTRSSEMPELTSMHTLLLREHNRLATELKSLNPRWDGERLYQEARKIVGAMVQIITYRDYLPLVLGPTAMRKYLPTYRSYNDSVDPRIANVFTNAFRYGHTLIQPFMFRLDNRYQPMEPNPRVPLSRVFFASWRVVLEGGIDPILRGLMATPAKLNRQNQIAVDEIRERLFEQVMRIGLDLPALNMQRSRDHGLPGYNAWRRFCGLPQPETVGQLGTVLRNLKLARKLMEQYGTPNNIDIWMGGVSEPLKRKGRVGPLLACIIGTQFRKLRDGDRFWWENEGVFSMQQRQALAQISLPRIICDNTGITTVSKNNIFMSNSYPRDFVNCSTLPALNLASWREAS
Test: Myeloperoxidase inhibition assay (taurine chloramine)
Assay type: biochemical
Settings: pure compounds, read-out: IC50 (μM) ± SD for MPO
measured-endpoint: IC50 (µM)

(A) COc1cc(/C=C/C(=O)O)ccc1O
(B) COc1ccc(-c2cc(=O)c3c(O)cc(O)cc3o2)cc1
[ask] Returns the identifier with the smallest measured IC50 among A and B . Give the chosen item's label as your response.
[reply] A

###

Molecular target: recombinant MPO (Homo sapiens, UniProt P05164)
Construct: made in house
Assay: Myeloperoxidase inhibition assay (taurine chloramine)
Format: biochemical
Settings: pure compounds, read-out: IC50 (μM) ± SD for MPO
Each entry below carries its recorded IC50.

Some compounds with recorded IC50:
[[record]]
sample_smiles = "O=c1cc(-c2ccccc2)oc2cc(O)cc(O)c12"
value_observed = "8 µM"

[[record]]
sample_smiles = "CC(C)c1c(O)ccc2c1CC[C@H]1C(C)(C)CCC[C@]21C"
value_observed = "> 10 µM"

[[record]]
sample_smiles = "O=C(O)/C=C/c1ccccc1"
value_observed = "9 µM"

[[record]]
sample_smiles = "O=c1c(O)c(-c2ccccc2)oc2cc(O)cc(O)c12"
value_observed = "> 10 µM"

[[record]]
sample_smiles = "O=c1c(-c2ccc(O)cc2)coc2cc(O)cc(O)c12"
value_observed = "> 10 µM"


Proceed to the following item.
[ask] I'd like to know its IC50. The compound in question is "O=C(O)/C=C/c1ccc(O)c(O)c1"
[reply] > 10 µM
